- protocol-description: Study MPKF: plasma pharmacokinetics of MDMA and MDA, single 120 mg MDMA·HCl, fasted/fed
- Format: in vivo, human
- condition-set: human, plasma, oral, 120 mg, fed treatment group; 1 h; read-out: PK plasma concentration, Mean
endpoint-name: concentration at 1 h
Report field: quantity (unit follows the number).

Item CNC(C)Cc1ccc2c(c1)OCO2 (stereo not shown) has what recorded concentration at 1 h?
59.8 ng/mL

----------
- protocol-description: Study MPKF: plasma pharmacokinetics of MDMA and MDA, single 120 mg MDMA·HCl, fasted/fed
- Type: in vivo, human
- condition-set: human, plasma, po, 120 mg, Fasted N = 15; 120 mg MDMA·HCl; preliminary; arithmetic mean; read-out: AUC0-t
endpoint-name: AUC(0-t) (ng·h/mL)
Entry rule: numbers only, all in ng·h/mL.

Item CNC(C)Cc1ccc2c(c1)OCO2 (stereo not shown) has what recorded AUC(0-t)?
3120

Where these numbers come from: patent US20250134855A1
